Tested on: bacterial inoculum
Condition details: control: nitrogen-containing compound without the glutaraldehyde; time 20 days
Recorded metric: Growth / No Growth

NCCO [MEA, monoethanolamine]; +
OCCNCCO [DEA, Diethanolamine]; −
Nc1ccccc1 [aniline, Aniline]; −
CCNCC [diethylamine, Diethylamine]; +

---

System: bacterial inoculum
Condition details: 10 ppm glutaraldehyde with two moles of the nitrogen-containing compound to glutaraldehyde; time 1 days
Recorded metric: Growth / No Growth

NCCO; −
OCCNCCO; +
Nc1ccccc1; −
CCNCC; −

---

System: bacterial inoculum
Condition details: control: nitrogen-containing compound without the glutaraldehyde; time 9 days
Protocol: A series of different nitrogen-containing compounds were evaluated as materials to neutralize glutaraldehyde. For these experiments, 10:1 ratio of minimal media to n-C16 were prepared, mixed with 10 ppm of glutaraldehyde (G) and evaluated in 250 ml flasks. Two moles of each of the nitrogen-containing compound to glutaraldehyde were added to the flasks. Then 10 μl of the bacterial inoculum was added to each flask. […]
Recorded metric: Growth / No Growth

OCCNCCO; +
NCCO; +
CCNCC; +
Nc1ccccc1; −

---

Test system: bacterial inoculum
Condition details: 10 ppm glutaraldehyde with two moles of the nitrogen-containing compound to glutaraldehyde; time 6 days
Recorded metric: Growth / No Growth

NCCO [MEA, monoethanolamine]; +
Nc1ccccc1 [aniline, Aniline]; −
CCNCC [diethylamine, Diethylamine]; +
OCCNCCO [DEA, Diethanolamine]; +

---

Reported toxicity of the nitrogen-containing compound to microbial growth, bacterial inoculum.
Recorded metric: toxicity of the nitrogen-containing compound to microbial growth

NCCO; not excessively toxic
CCNCC; not excessively toxic
OCCNCCO; not excessively toxic

---

Tested on: bacterial inoculum
Condition details: control: nitrogen-containing compound without the glutaraldehyde; time 13 days
Recorded metric: Growth / No Growth

OCCNCCO [DEA, Diethanolamine]; +
Nc1ccccc1 [aniline, Aniline]; −
CCNCC [diethylamine, Diethylamine]; +
NCCO [MEA, monoethanolamine]; +
